Origin of measurements: PubChem BioAssay

- Test system: F380Y/beta4
- experiment: modulators of BK channel variants, profiling panel, selectivity assay, cell-based, U2OS BacMam, thallium flux, beta subunits (AID 1259406);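 also: initial slope of Thallos dye fluorescence rise after thallium is added; log ratio against the mean of 0.3% DMSO vehicle wells on the same plate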
- cond: at 30 µM
Active and inactive are the calls of the source.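 The calls were made as follows: active = thallium flux through the channel raised or lowered by more than 3 SD from vehicle-only wells, actives on both sides; inactive = the rest.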
reported-property: log fold change Tl+ flux

record-smiles	log fold change Tl+ flux
O=c1n(-c2ccccc2)c(=O)n2n1C1CCC2C1	0.0475 (inactive)
COc1ccccc1NC(=S)NNC(=O)CSc1ccccc1[N+](=O)[O-]	0.0916 (inactive)
C/C(=C\C(=O)OCCCCCCCCC(=O)O)C[C@@H]1OC[C@H](C[C@@H]2O[C@H]2[C@@H](C)[C@H](C)O)[C@@H](O)[C@H]1O	0.0116 (inactive)
O=C(CC(=O)NNC(=O)c1ccc(F)cc1)NNC(=O)c1ccc(F)cc1	-0.0066 (inactive)
Cc1ccc(S(=O)(=O)NC(=O)NCc2csc3ccc(Cl)cc23)cc1	0.366 (active)
CN1c2ccsc2C(=O)C(=NNc2cccc(C(F)(F)F)c2)S1(=O)=O	0.0228 (inactive)
Cc1ccc(C2=C(c3ccccc3)C(=O)C(c3ccccc3)=C2c2ccc(Cl)cc2)cc1	-0.0256 (inactive)
O=S(=O)(Cc1nc(C=Cc2cc(C(F)(F)F)cc(C(F)(F)F)c2)no1)c1ccc(Cl)cc1	-0.0134 (inactive)

Now for the compound whose log fold change Tl+ flux we want.
Form field log fold change Tl+ flux, entry Cn1c(Sc2cnc(=S)[nH]c2-c2ccc(Cl)cc2)nnc1C(F)(F)F : -0.0336 (inactive)

---

- experiment: suppressors of polyQ aggregation in yeast, 75Q-TubU reporter (AID 1593)
- cond: Yeast 75Q polyglutamine aggregation reporter
So basically, if score comes in under 2 it's label 1, and if it's 2 or more it's label 0.

Consider the following illustrative entries.
compound	label-class
CC1(C)C2CC[C@]3(C)C(C(=O)C=C4[C@@H]5C[C@@](C)(C(=O)O)CC[C@]5(C)CC[C@]43C)[C@@]2(C)CC[C@@H]1O (stereo partly specified)	label 0
C[C@@H]1CC2C3CCC4=CC(=O)C=C[C@]4(C)[C@@]3(F)[C@@H](O)C[C@]2(C)[C@@]1(O)C(=O)COP(=O)(O)O (stereo partly specified)	label 0
CC[C@@H](C(=O)[C@@H](C)[C@@H](O)[C@H](C)[C@@H]1O[C@@H]([C@@H](CC)C(=O)O)CC[C@@H]1C)[C@H]1OC2(C=C[C@@H](O)[C@]3(CC[C@@](C)([C@H]4CC[C@](O)(CC)[C@H](C)O4)O3)O2)[C@H](C)C[C@@H]1C (stereo partly specified)	label 1

Ask: Record C[N+]1(C)C2CC(OC(=O)[C@@H](CO)c3ccccc3)CC1C1OC12 (stereo partly specified) : is its score strictly below 2?
Result: label 1

Ask: Does the reported score of CC(C)CC1C(=O)N2CCC[C@H]2C2(O)O[C@](NC(=O)C3C=C4c5cccc6[nH]c(Br)c(c56)C[C@H]4N(C)C3)(C(C)C)C(=O)N12 (stereo partly specified) stay below 2?
Result: label 1

Ask: In the record for CN1CCN(CCC=C2c3ccccc3Sc3ccc(S(=O)(=O)N(C)C)cc32)CC1 , is score less than 2?
Result: label 1

---

As shown below, each of these compounds has a reported inhibition value.
- system-name: L-lactate dehydrogenase (Plasmodium falciparum (isolate CDC / Honduras)) (UniProt Q27743)
- Sequence (Q27743 whole entry, looked up): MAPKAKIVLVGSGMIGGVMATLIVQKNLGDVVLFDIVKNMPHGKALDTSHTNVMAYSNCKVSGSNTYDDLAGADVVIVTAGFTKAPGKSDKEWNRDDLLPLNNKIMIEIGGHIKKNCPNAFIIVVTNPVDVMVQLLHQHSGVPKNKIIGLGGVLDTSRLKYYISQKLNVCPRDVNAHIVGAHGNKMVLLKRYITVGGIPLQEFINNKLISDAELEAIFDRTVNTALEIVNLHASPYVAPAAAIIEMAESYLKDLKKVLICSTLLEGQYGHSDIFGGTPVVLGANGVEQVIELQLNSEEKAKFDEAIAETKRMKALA
- experiment: PfLDH activity inhibition – cell lysate, 3D7 strain, counter-screen for P. falciparum growth inhibition project (AID 2304);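 also: 0% = vehicle and 100% = reference inhibitor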
- cond: P. falciparum 3D7 crude extract, LDH APAD/NBT absorbance; at 2 µM; stronger effect = higher value
Expressed in %, but write only the number.

Worked examples follow.
compound	inhibition, %
Cc1[nH]c(C)c(-c2ccc(Oc3ccccc3)cc2)c(=O)c1Br	1
Cc1ccnc(NC(c2ccc(Cl)c([N+](=O)[O-])c2)c2ccc3cccnc3c2O)c1 (stereo not drawn)	6
Cc1ccccc1Cc1cccc(/N=C(\N)Nc2ccc(Cl)cc2)n1	-7
COC(=O)c1c(C#N)c(OC)cc(O)c1CSC[C@H](Nc1nc(-c2ccc([N+](=O)[O-])cc2)cs1)C(=O)NCCN1CCCCC1	-2
Cc1cccc2[nH]c(-c3ccc(-c4ccc(C(=O)NCCN5CCCC5)cc4)cc3)nc12	3
CCCC(=O)Nc1ccc(OCCCCN(CC(C)(C)C)c2ccc(C#N)c(C(F)(F)F)c2)cc1	-1

get_value(item= Cc1csc(-c2ncc(OC[C@@H](N)Cc3ccccc3)cc2-c2ccc3n[nH]c(C)c3c2)c1 , readout=inhibition) returns 4

// Nc1nc(N)c2cc(Cc3ccc([N+](=O)[O-])cc3)cnc2n1 : inhibition value = -2

For record COc1cc(C(C)C)nc2ccc(NC(=O)c3ccc(C(=O)Nc4ccc5nc(C(C)C)cc(OC)c5c4)cc3)cc12 the listed inhibition is 0

Entry Fc1ccc2nc(-c3cccc(-c4ccc(CN5CCN(CCN6CCOCC6)CC5)cc4)c3)[nH]c2c1 — recorded inhibition = -3

Noted for Cc1onc(-c2c(Cl)cccc2Cl)c1C(=O)NC1=NC(C)(C)ON1c1ccccc1 : its inhibition reads 1

In plain terms, CC(C)(CNC(=O)[C@H]1CCCN1)c1nc(-c2ccc(Cl)c(O)c2)c(-c2ccncc2)[nH]1 has a documented inhibition of -1

The compound listed as CCCNC(=O)c1cncc(-c2ccc(CNC(CC)c3ccccc3)cc2)c1 (stereo not drawn) shows inhibition equal to 0

Value of inhibition reported for the compound Cn1cccc1C(=O)Nc1cccc(-c2nn3ccccc3c2-c2ccnc(Nc3ccc4c(c3)OCCO4)n2)c1 is 4

// inhibition lookup, compound = CC(C)Oc1ccc2ccccc2c1CNCCCCCCNCc1c(OC(C)C)ccc2ccccc12 , result: -7

Notebook: COc1cccc(CCc2ccc(O)c3c2C[C@H]2C[C@H]4[C@H](N(C)C)C(=O)C(C(N)=O)=C(O)[C@@]4(O)C(=O)C2=C3O)c1 , inhibition read as -4

Per the record, O=C(CCCCCNC(=O)c1ccc(O)c(-c2ccc(Cl)c(Cl)c2)c1)NCCc1ccc(Cl)c(Cl)c1 has inhibition of -6

Lookup result for CCCCN1CCCC[C@H]1[C@@H](O)c1ccnc2ccc(OCC)cc12 ; measured inhibition: -2
